assay-summary: Equilibrium solubility of active ingredients in solvents
Assay type: physicochemical
condition: 50/50 propylene glycol/glycerine, organic solvent or mixture; 50/50PG/Gly, 34 °C
quantity-kind: solubility thermodynamic (mg/mL)

compound | quantity-kind | measured-value
N=C(N)N/N=C/c1c(Cl)cccc1Cl [Guanabenz] | solubility thermodynamic | 29.4

* * *

assay-summary: Equilibrium solubility of active ingredients in solvents
Type: physicochemical
condition: 35/65 propylene glycol/glycerine, organic solvent or mixture; 35/65PG/Gly, 34 °C

item-smiles | solubility thermodynamic
N=C(N)N/N=C/c1c(Cl)cccc1Cl | 21.2 mg/mL

* * *

assay-summary: Equilibrium solubility of active ingredients in solvents
Format: physicochemical
condition: organic solvent or mixture; Propylene Glycol, 34 °C
Method: An exact amount of saturated solution is withdrawn into a volumetric flask while maintaining temperature. The saturated solution is diluted in suitable solvent and the content of active ingredient measured by high pressure liquid chromatography or other suitable analytical method.
quantity-kind: solubility thermodynamic

item-smiles | measured-value
N=C(N)N/N=C/c1c(Cl)cccc1Cl | 47 mg/mL
